Cited source for all entries: patent US20250304650A1

For each of the binders below, state its koff.
# system: feline FcRn (FCN-F82W3, Acrobiosystems) (feline)
# protocol.notes: SPR Carterra, IgG coupled, pH 6.0
Answers are plain numbers, in s⁻¹.

Illustrative cases are given below, each with its answer.
binder	result.units	koff
anti-NGF feline IgG1a, Fc variant N389c-R (antibody, part only; not given: anti-NGF variable domains, not shown: another chain or arm of the molecule; small tags and cut ends) Fc: PPEMLGGPSIFIFPPKPKDTLSISRTPEVTCLVVDLGPDDSDVQITWFVDNTQVYTAKTSPREEQFNSTYRVVSVLPILHQDWLKGKEFKCKVNSKSLPSPIERTISKAKGQPHEPQVYVLPPAQEELSRNKVSVTCLIKSFHPPDIAVEWEITGQPEPERNYRTTPPQLDSDGTYFVYSKLSVDRSHWQRGNTYTCSVSHEALHSHHTQKSLTQSPGK	s⁻¹	0.0944
anti-NGF feline IgG1a, Fc variant S428L, S252R (antibody, part only; not given: anti-NGF variable domains, not shown: another chain or arm of the molecule; small tags and cut ends) Fc: PPEMLGGPSIFIFPPKPKDTLRISRTPEVTCLVVDLGPDDSDVQITWFVDNTQVYTAKTSPREEQFNSTYRVVSVLPILHQDWLKGKEFKCKVNSKSLPSPIERTISKAKGQPHEPQVYVLPPAQEELSRNKVSVTCLIKSFHPPDIAVEWEITGQPEPENNYRTTPPQLDSDGTYFVYSKLSVDRSHWQRGNTYTCSVLHEALHSHHTQKSLTQSPGK	s⁻¹	0.00873
anti-NGF feline IgG1a, Fc variant S434Y, T286D (antibody, part only; not given: anti-NGF variable domains, not shown: another chain or arm of the molecule; small tags and cut ends) Fc: PPEMLGGPSIFIFPPKPKDTLSISRTPEVTCLVVDLGPDDSDVQITWFVDNTQVYDAKTSPREEQFNSTYRVVSVLPILHQDWLKGKEFKCKVNSKSLPSPIERTISKAKGQPHEPQVYVLPPAQEELSRNKVSVTCLIKSFHPPDIAVEWEITGQPEPENNYRTTPPQLDSDGTYFVYSKLSVDRSHWQRGNTYTCSVSHEALHYHHTQKSLTQSPGK	s⁻¹	0.00371
anti-NGF feline IgG1a, Fc variant S252Y, Q311V (antibody, part only; not given: anti-NGF variable domains, light chain, not shown: another chain or arm of the molecule; small tags and cut ends) Fc: PPEMLGGPSIFIFPPKPKDTLYISRTPEVTCLVVDLGPDDSDVQITWFVDNTQVYTAKTSPREEQFNSTYRVVSVLPILHVDWLKGKEFKCKVNSKSLPSPIERTISKAKGQPHEPQVYVLPPAQEELSRNKVSVTCLIKSFHPPDIAVEWEITGQPEPENNYRTTPPQLDSDGTYFVYSKLSVDRSHWQRGNTYTCSVSHEALHSHHTQKSLTQSPGK	s⁻¹	0.00405

Next binder, please.
Sure, the documented koff for anti-NGF feline IgG1a, Fc variant S252R, A378E (antibody, part only; not given: Anti-NGF variable domains, not shown: another chain or arm of the molecule; small tags and cut ends) Fc: PPEMLGGPSIFIFPPKPKDTLRISRTPEVTCLVVDLGPDDSDVQITWFVDNTQVYTAKTSPREEQFNSTYRVVSVLPILHQDWLKGKEFKCKVNSKSLPSPIERTISKAKGQPHEPQVYVLPPAQEELSRNKVSVTCLIKSFHPPDIEVEWEITGQPEPENNYRTTPPQLDSDGTYFVYSKLSVDRSHWQRGNTYTCSVSHEALHSHHTQKSLTQSPGK is 0.00927
